Assay Explanation: Pharmacokinetics in female BALB/c nude mice bearing A375 xenografts, 1 day dosing (PK and PD study): plasma, tumor and brain concentrations, AUC
Type: in vivo
Assay Context: mouse, tumor, po, 6 mg/kg, 6 mg/kg p.o. QD × 1 day; 48 h; read-out: Mean Concentration in Tumor ± SEM
Measurement Name: concentration at 48 h (ng/g)
Reply with just the number (in ng/g).

# lookup: concentration at 48 h of CCN(C)S(=O)(=O)Nc1ccc(F)c(Oc2ccc3ncn([C@H]4COC5(CCN(C6CC7(C6)CN(c6cc8c(cc6F)c(N6CCC(=O)NC6=O)nn8C)C7)CC5)C4)c(=O)c3c2)c1C#N [Compound 26]
24.2

###

Subject Of Test: BRAF V600E (Homo sapiens, UniProt P15056+Q96SW2, V600E)
Construct: knock-in of the HiBiT tag to the endogenous BRAF V600E locus; host or cells: A375.10 (A375 clonal line, CRISPR HiBiT knock-in at the endogenous BRAF V600E locus)
Sequence (P15056 whole entry V600E): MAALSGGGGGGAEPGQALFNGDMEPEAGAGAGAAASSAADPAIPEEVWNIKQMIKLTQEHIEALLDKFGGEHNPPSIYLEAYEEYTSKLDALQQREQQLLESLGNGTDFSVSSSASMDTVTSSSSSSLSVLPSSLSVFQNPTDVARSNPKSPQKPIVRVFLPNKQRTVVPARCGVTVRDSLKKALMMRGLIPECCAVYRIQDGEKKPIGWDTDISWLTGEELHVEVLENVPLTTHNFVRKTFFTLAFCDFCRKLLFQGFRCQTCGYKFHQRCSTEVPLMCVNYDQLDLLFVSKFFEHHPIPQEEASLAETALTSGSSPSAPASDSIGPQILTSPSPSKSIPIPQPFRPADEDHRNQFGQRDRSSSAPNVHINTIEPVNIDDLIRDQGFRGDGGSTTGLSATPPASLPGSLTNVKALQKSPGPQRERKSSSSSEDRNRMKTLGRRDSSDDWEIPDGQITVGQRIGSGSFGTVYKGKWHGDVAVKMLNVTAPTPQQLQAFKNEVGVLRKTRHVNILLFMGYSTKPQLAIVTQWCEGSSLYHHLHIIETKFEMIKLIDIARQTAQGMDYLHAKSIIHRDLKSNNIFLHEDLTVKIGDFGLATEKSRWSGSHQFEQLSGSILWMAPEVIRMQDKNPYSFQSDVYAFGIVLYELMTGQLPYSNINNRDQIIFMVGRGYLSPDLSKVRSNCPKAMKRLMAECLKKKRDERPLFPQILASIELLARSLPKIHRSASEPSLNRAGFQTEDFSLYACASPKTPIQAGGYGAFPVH
Sequence (Q96SW2 whole entry): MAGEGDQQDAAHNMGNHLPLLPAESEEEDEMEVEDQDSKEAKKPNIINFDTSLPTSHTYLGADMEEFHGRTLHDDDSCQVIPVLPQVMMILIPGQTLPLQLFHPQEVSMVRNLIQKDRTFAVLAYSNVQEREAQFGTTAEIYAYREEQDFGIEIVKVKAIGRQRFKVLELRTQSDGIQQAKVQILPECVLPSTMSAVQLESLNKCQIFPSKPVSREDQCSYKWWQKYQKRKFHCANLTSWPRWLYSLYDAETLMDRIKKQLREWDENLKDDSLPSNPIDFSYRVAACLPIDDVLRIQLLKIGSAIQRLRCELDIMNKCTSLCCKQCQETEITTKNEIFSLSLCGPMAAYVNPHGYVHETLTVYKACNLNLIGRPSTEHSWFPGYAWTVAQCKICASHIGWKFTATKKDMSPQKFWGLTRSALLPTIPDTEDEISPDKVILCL
Sequence (Q16531 whole entry partner): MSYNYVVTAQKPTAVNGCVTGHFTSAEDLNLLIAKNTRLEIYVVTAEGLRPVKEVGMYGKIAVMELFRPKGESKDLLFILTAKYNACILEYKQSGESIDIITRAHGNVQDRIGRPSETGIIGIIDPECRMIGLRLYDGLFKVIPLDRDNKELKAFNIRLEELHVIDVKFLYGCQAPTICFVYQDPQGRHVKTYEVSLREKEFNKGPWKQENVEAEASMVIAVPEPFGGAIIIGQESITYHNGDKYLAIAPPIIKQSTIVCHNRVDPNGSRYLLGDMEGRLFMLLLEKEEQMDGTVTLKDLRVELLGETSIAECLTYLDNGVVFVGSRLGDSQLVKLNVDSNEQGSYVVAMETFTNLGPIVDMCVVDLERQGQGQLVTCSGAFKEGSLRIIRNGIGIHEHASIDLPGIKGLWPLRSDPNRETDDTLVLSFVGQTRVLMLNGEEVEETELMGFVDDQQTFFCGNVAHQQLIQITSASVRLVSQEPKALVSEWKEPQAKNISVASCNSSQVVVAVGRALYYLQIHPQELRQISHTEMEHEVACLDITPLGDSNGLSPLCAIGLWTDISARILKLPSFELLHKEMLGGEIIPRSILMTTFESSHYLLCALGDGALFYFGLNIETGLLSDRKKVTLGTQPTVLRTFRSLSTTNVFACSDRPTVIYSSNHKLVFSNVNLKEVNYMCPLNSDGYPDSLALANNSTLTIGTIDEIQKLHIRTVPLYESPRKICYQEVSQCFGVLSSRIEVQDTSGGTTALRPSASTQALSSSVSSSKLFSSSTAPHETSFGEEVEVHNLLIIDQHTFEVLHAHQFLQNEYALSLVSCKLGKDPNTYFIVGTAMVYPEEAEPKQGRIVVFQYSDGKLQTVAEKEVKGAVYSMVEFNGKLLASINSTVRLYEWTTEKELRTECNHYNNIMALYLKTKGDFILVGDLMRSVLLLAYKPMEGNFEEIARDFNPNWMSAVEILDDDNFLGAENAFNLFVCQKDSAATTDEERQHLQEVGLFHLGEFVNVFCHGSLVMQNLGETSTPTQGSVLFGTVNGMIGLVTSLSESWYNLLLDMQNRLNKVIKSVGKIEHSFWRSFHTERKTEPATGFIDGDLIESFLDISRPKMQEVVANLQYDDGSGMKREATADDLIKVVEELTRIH
Assay Explanation: BRAF V600E HiBiT Degradation Assay
Type: cell-based
Assay Context: A375.10 cells, BRAF V600E, 2 hours; read-out: HiBiT-Degradation A375.10 BRAF 2 hours DC50
Examples of compounds with documented DC50 follow.

{"columns": ["Compound", "Result"],
 "data": [
  ["CCN(C)S(=O)(=O)Nc1ccc(F)c(Oc2ccc3ncn([C@H]4CCC5(CCN(C6CCC(c7ccc(NC8CCC(=O)NC8=O)cc7F)CC6)CC5)C4)c(=O)c3c2)c1C#N (single isomer, unassigned) [Compound 25]", "1000 to 10000 nM"]
]}

# lookup: DC50 of CN(CCO)S(=O)(=O)Nc1ccc(F)c(Oc2ccc3ncc([C@H]4COC5(CCN(C6CCC(c7cc8c(cc7F)c(N7CCC(=O)NC7=O)nn8C)CC6)CC5)C4)nc3c2)c1C#N (single isomer, unassigned)
< 1000 nM

# lookup: DC50 of CCN(C)S(=O)(=O)Nc1ccc(F)c(Nc2ccc3ncn([C@H]4COC5(CCN(C6CCC(c7cc8c(cc7F)c(N7CCC(=O)NC7=O)nn8C)CC6)CC5)C4)c(=O)c3c2)c1C#N (single isomer, unassigned) [Compound 64]
< 1000 nM

# lookup: DC50 of CCN(C)S(=O)(=O)Nc1ccc(F)c(Oc2ccc3ncc(C4CC5(C4)CN(C4CCC(c6cc7c(cc6F)c(N6CCC(=O)NC6=O)nn7C)CC4)C5)nc3c2)c1C#N (single isomer, unassigned) [Compound 298]
< 1000 nM

# lookup: DC50 of CCN(C)S(=O)(=O)Nc1ccc(F)c(Oc2ccc3ncn(C4CC5(CCN(C6CC7(C6)CN(c6cc8c(cc6F)c(N6CCC(=O)NC6=O)nn8C)C7)C5)C4)c(=O)c3c2)c1C#N (single isomer, unassigned) [Compound 302]
< 1000 nM

# lookup: DC50 of Cn1nc(N2CCC(=O)NC2=O)c2cc(F)c(N3CC4(CC(N5CCC6(CC5)C[C@@H](n5cnc7ccc(Oc8c(F)ccc(NS(=O)(=O)N9CC[C@@H](F)C9)c8C#N)cc7c5=O)CO6)C4)C3)cc21
> 10000 nM

# lookup: DC50 of CCN(C)S(=O)(=O)Nc1ccc(F)c(Nc2ccc3ncn([C@@H]4COC5(CCN(C6CCC(c7cc8c(cc7F)c(N7CCC(=O)NC7=O)nn8C)CC6)CC5)C4)c(=O)c3c2F)c1C#N (single isomer, unassigned) [Compound 69]
< 1000 nM

# lookup: DC50 of CCN(C)S(=O)(=O)Nc1ccc(F)c(Oc2ccc3ncn(C4CCC5(CC4)CCN(C4CCC(c6cc7c(cc6F)c(N6CCC(=O)NC6=O)nn7C)CC4)CC5)c(=O)c3c2)c1C#N (single isomer, unassigned) [Compound 12]
< 1000 nM

# lookup: DC50 of Cn1nc(N2CCC(=O)NC2=O)c2cc(F)c(N3CC4(CC(N5CCC6(CC5)C[C@@H](n5cnc7ccc(Oc8c(F)ccc(NS(=O)(=O)N9CCOCC9)c8C#N)cc7c5=O)CO6)C4)C3)cc21
1000 to 10000 nM
